Biological target: dopamine D2 (Homo sapiens, UniProt P14416)
Sequence (P14416 whole entry): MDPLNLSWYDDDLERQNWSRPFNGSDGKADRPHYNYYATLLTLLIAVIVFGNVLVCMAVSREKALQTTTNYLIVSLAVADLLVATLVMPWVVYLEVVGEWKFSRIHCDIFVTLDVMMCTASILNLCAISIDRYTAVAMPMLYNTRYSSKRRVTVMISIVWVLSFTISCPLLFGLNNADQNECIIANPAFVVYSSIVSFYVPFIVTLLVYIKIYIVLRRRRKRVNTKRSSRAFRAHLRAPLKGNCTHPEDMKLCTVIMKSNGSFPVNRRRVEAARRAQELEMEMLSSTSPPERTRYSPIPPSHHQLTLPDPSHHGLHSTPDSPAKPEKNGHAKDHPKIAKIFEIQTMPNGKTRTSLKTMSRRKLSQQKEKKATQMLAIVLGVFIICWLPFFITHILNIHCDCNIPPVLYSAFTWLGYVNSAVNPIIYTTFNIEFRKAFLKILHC
Test: Calcium mobilization assay, dopamine D2 antagonist activity
Details: HEK293 D2/Gα16 cells
// values below are reported IC50

[ask] Look at this compound and give its reported IC50. COc1ccc2c(c1)c1c(n2CO)CN2CCc3cc(OC)c(OCC(F)(F)F)cc3C2C1 (stereo not shown) [Compound 21]
[reply] ~50 µM

[ask] Look at this compound and give its reported IC50. COc1cc2c(cc1OCc1ccccc1F)C1Cc3c(n(CO)c4ccccc34)CN1CC2 (stereo not shown) [Compound 8]
[reply] 17.9 µM

[ask] Look at this compound and give its reported IC50. COc1ccc2c(c1)c1c(n2CO)CN2CCc3cc(OCc4ccccc4)c(OC)cc3C2C1 (stereo not shown) [Compound 22]
[reply] ≥ 100 µM

[ask] Look at this compound and give its reported IC50. COc1ccc2c(c1)c1c(n2CO)CN2CCc3cc(OC)c(OCc4ccc(F)cc4)cc3C2C1 (stereo not shown) [Compound 18]
[reply] > 100 µM

###

Experiment: Pharmacokinetic profiles in male hamsters
Assay type: in vivo
Conditions: hamster, serum, po, 20 mg/kg
OBSERVED_PROPERTY: AUC(0-inf) (ng·h/mL)
Provide the reading as a plain figure in ng·h/mL.

[ask] Look at this compound and give its reported AUC(0-inf). COc1ccc2c(c1)c1c(n2CO)CN2CCc3cc(OCc4ccccc4)c(OC)cc3C2C1 (stereo not shown)
[reply] 1000

###

Assay: Pharmacokinetic profiles in male hamsters
Format: in vivo
Settings: hamster, serum, po, 20 mg/kg
OBSERVED_PROPERTY: Cmax (ng/mL)
Provide the reading as a plain figure in ng/mL.

[ask] Look at this molecule and give its reported Cmax. COc1ccc2c(c1)c1c(n2CO)CN2CCc3cc(OCc4ccccc4)c(OC)cc3C2C1 (stereo not shown) [Compound 22]
[reply] 169

###

Assay: Pharmacokinetic profiles in male hamsters
Format: in vivo
Details: hamster, serum, iv, 10 mg/kg
OBSERVED_PROPERTY: AUC(0-inf) (ng·h/mL)
Provide the reading as a plain figure in ng·h/mL.

[ask] Look at this compound and give its reported AUC(0-inf). COc1ccc2c(c1)c1c(n2CO)CN2CCc3cc(OCc4ccccc4)c(OC)cc3C2C1 (stereo not shown) [Compound 22]
[reply] 2090

###

Assay: Pharmacokinetic profiles in male hamsters
Format: in vivo
Settings: hamster, serum, iv, 10 mg/kg
OBSERVED_PROPERTY: MRT (h)
Provide the reading as a plain figure in h.

[ask] Look at this compound and give its reported MRT. COc1ccc2c(c1)c1c(n2CO)CN2CCc3cc(OCc4ccccc4)c(OC)cc3C2C1 (stereo not shown) [Compound 22]
[reply] 4.13

###

Assay: Pharmacokinetic profiles in male hamsters
Type: in vivo
Settings: hamster, serum, po, 20 mg/kg
OBSERVED_PROPERTY: MRT (h)
Provide the reading as a plain figure in h.

[ask] Look at this compound and give its reported MRT. COc1ccc2c(c1)c1c(n2CO)CN2CCc3cc(OCc4ccccc4)c(OC)cc3C2C1 (stereo not shown) [Compound 22]
[reply] 10.3

###

Test: Pharmacokinetic profiles in male hamsters
Format: in vivo
Conditions: hamster, serum, oral, 20 mg/kg
OBSERVED_PROPERTY: bioavailability (%)
Provide the reading as a plain figure in %.

[ask] Look at this compound and give its reported bioavailability. COc1ccc2c(c1)c1c(n2CO)CN2CCc3cc(OCc4ccccc4)c(OC)cc3C2C1 (stereo not shown) [Compound 22]
[reply] 21.9

###

Target: hERG channel (Homo sapiens)
Sequence (Q12809 whole entry): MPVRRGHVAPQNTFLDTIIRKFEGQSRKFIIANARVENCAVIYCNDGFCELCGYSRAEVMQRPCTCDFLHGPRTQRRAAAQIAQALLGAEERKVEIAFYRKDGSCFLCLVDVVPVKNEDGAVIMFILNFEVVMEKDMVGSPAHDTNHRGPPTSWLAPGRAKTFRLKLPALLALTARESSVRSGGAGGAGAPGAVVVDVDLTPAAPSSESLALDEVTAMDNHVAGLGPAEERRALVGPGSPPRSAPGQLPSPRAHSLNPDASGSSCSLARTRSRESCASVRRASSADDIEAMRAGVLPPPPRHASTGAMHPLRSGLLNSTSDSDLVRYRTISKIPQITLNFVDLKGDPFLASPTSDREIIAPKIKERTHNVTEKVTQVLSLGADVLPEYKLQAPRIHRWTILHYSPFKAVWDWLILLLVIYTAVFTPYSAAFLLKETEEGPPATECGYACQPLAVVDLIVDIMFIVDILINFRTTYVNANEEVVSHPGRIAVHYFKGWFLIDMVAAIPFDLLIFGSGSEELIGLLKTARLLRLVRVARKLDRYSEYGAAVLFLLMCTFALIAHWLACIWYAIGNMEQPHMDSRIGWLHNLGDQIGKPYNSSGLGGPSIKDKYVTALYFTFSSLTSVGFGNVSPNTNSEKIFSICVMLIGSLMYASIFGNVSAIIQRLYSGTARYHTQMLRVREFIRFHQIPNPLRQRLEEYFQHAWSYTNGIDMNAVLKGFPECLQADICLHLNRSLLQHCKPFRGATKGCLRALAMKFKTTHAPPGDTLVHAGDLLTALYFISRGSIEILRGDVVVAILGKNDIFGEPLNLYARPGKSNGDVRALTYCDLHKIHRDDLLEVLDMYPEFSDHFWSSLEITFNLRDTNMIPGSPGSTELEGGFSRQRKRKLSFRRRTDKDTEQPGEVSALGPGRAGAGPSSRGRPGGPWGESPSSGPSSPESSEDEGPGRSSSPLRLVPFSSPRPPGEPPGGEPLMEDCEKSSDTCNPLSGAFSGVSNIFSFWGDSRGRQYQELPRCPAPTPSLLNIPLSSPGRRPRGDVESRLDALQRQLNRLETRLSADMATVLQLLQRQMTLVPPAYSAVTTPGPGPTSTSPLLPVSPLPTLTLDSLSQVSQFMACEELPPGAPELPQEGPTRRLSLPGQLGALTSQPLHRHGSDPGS
Assay: hERG testing
Format: cell-based
OBSERVED_PROPERTY: IC50 (µM)
Provide the reading as a plain figure in µM.

[ask] Look at this molecule and give its reported IC50. COc1ccc2c(c1)c1c(n2CO)CN2CCc3cc(OCc4ccccc4)c(OC)cc3C2C1 (stereo not shown)
[reply] 7.99

###

Assay: Pharmacokinetic profiles in male hamsters
Type: in vivo
Settings: hamster, serum, po, 20 mg/kg
OBSERVED_PROPERTY: half-life (h)
Provide the reading as a plain figure in h.

[ask] Look at this compound and give its reported half-life. COc1ccc2c(c1)c1c(n2CO)CN2CCc3cc(OCc4ccccc4)c(OC)cc3C2C1 (stereo not shown)
[reply] 6.35

###

Target: serotonin 5-HT1B receptor (Homo sapiens)
Sequence (P28222 whole entry): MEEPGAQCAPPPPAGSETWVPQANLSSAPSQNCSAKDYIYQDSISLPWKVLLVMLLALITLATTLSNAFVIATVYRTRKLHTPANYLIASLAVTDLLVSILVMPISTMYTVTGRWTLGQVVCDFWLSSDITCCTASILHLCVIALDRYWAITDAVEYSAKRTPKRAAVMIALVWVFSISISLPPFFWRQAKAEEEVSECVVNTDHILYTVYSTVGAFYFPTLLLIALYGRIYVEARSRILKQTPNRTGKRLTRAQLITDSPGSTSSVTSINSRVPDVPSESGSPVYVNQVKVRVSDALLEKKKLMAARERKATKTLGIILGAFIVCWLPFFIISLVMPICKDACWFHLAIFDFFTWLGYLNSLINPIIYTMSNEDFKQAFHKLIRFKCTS
Assay: Whole-cell binding assay, 5-HT1B
// values below are reported IC50

COc1ccc2c(c1)c1c(n2CO)CN2CCc3cc(OCc4ccccc4)c(OC)cc3C2C1 (stereo not shown) = 13.4 µM
COc1cc2c(cc1OCc1ccccc1F)C1Cc3c(n(CO)c4ccccc34)CN1CC2 (stereo not shown) = 47.2 µM
COc1ccc2c(c1)c1c(n2CO)CN2CCc3cc(OC)c(OCc4ccc(F)cc4)cc3C2C1 (stereo not shown) = > 100 µM

API: the following record is the query input.
[ask] Look at this compound and give its reported IC50. COc1ccc2c(c1)c1c(n2CO)CN2CCc3cc(OC)c(OCC(F)(F)F)cc3C2C1 (stereo not shown)
[reply] > 100 µM

###

Target: dopamine D1 (Homo sapiens, UniProt P21728)
Sequence (P21728 whole entry): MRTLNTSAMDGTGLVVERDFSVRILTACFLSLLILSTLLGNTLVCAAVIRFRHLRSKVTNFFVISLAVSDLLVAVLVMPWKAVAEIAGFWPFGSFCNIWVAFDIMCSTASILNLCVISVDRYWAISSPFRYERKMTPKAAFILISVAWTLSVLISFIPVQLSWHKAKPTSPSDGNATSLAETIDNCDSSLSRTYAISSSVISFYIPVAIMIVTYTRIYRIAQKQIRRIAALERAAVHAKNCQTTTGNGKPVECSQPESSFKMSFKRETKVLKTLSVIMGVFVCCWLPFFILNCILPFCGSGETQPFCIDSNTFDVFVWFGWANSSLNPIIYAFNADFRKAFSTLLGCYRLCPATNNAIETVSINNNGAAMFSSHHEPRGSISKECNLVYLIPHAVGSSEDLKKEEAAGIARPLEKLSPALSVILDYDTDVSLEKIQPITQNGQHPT
Assay: Calcium mobilization assay, dopamine D1 antagonist activity
Conditions: HEK293 D1/Gα16 cells
// values below are reported pIC50
# pIC50: negative log10 of molar concentration; output just the value

COc1cc2c(cc1OCc1ccccc1F)C1Cc3c(n(CO)c4ccccc34)CN1CC2 (stereo not shown) = 5.25
COc1ccc2c(c1)c1c(n2CO)CN2CCc3cc(OC)c(OCc4ccc(F)cc4)cc3C2C1 (stereo not shown) = 5.77

API: the following record is the query input.
[ask] Look at this compound and give its reported pIC50. COc1ccc2c(c1)c1c(n2CO)CN2CCc3cc(OC)c(OCC(F)(F)F)cc3C2C1 (stereo not shown)
[reply] 5.63

###

// values below are reported pIC50
Biological target: beta-1 adrenergic receptor (Homo sapiens, UniProt P08588)
Sequence (P08588 whole entry, species assumed): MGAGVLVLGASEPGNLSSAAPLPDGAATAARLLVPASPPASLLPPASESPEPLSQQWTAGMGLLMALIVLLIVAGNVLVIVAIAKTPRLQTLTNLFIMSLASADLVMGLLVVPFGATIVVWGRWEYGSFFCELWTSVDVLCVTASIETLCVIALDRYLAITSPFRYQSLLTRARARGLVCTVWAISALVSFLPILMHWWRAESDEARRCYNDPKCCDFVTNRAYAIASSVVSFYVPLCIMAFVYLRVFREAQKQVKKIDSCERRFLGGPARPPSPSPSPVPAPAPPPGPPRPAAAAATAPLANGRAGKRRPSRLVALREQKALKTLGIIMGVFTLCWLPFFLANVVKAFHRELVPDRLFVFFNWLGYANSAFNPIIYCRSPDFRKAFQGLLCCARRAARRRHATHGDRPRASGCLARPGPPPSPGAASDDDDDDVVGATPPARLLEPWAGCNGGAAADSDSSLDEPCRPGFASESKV
Experiment: Calcium mobilization assay, β1 adrenergic receptor antagonist activity
Conditions: HEK293 β1-AR/Gα16 cells
pIC50: −log10 of the molar value.

COc1cc2c(cc1OCc1ccccc1F)C1Cc3c(n(CO)c4ccccc34)CN1CC2 (stereo not shown) = < 4.00
COc1ccc2c(c1)c1c(n2CO)CN2CCc3cc(OC)c(OCc4ccc(F)cc4)cc3C2C1 (stereo not shown) = ~4.00
COc1ccc2c(c1)c1c(n2CO)CN2CCc3cc(OCc4ccccc4)c(OC)cc3C2C1 (stereo not shown) = ≤ 4.00

API: the following record is the query input.
[ask] Look at this compound and give its reported pIC50. COc1ccc2c(c1)c1c(n2CO)CN2CCc3cc(OC)c(OCC(F)(F)F)cc3C2C1 (stereo not shown)
[reply] ~4.00
